settings: buffer; pH 7.4; 6.0 h; 150.0 µM
Let's look at some compounds and their measured solubility kinetic.
Experimental Endpoint: solubility kinetic (µg/mL)

{"Smi": "Cc1ccnc(NC(=S)N2CCN(c3cc(Cl)cc(Cl)c3)CC2)c1", "Experimental Endpoint": "solubility kinetic", "Qualifier": "=", "Observed Result": 2.32}
{"Smi": "COc1ccc(S(=O)(=O)N2CCCCCC2)cc1NC(=O)Cc1n[nH]c(=O)c2ccccc12", "Experimental Endpoint": "solubility kinetic", "Qualifier": "=", "Observed Result": 8.46}
{"Smi": "c1ccc2c(Nc3ccc4nc[nH]c4c3)nc(-c3ccncc3)nc2c1", "Experimental Endpoint": "solubility kinetic", "Qualifier": "<", "Observed Result": 1}
{"Smi": "Cc1nn(CCc2nc(-c3ccc(OC(F)F)cc3)cs2)c2[nH]c(=O)cc(C(F)(F)F)c12", "Experimental Endpoint": "solubility kinetic", "Qualifier": "<", "Observed Result": 1}
{"Smi": "CCn1nnnc1Sc1ncnc2scc(-c3ccc(C)cc3)c12", "Experimental Endpoint": "solubility kinetic", "Qualifier": "=", "Observed Result": 3.32}
{"Smi": "COc1ccnc(NC(=S)N2CCN(c3cccc(C(F)(F)F)n3)CC2)c1", "Experimental Endpoint": "solubility kinetic", "Qualifier": "<", "Observed Result": 1}
{"Smi": "CN(C(=O)CNC(=O)c1ccccc1OCC(=O)Nc1ccc(I)cc1)c1ccccc1", "Experimental Endpoint": "solubility kinetic", "Qualifier": "=", "Observed Result": 1.28}
{"Smi": "O=C(Nc1ccc(Br)cc1)c1ccc(F)c(S(=O)(=O)NC2CCCCCC2)c1", "Experimental Endpoint": "solubility kinetic", "Qualifier": "<", "Observed Result": 1}
{"Smi": "COc1ccccc1-c1nc(NCc2cnc(C)cn2)c2ccccc2n1", "Experimental Endpoint": "solubility kinetic", "Qualifier": ">", "Observed Result": 53}
{"Smi": "COc1ccc(NC(=O)CCCc2nnc3n(CCC(C)C)c(=O)c4sccc4n23)cc1Cl", "Experimental Endpoint": "solubility kinetic", "Qualifier": "<", "Observed Result": 1}
